# target.or.system: SCRIB_3, Q14160
# Sequence (Q14160 999-1103): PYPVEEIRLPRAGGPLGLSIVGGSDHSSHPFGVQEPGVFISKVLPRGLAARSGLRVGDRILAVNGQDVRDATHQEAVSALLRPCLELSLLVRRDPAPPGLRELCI
# assay.method.text: holdup assay
# Design: key: below the threshold = too weak to quantify, mostly under pKd 3.1 to 4
# test.parameters: plain residues with an end cap or a label only (N-terminal biotin on a linker: ado-ado)
experimental.readout: pKd

Take a look at these entries with their results.
- binder: "LPPPESESKV [KCNJ9, Q92806]"
  reading: "below the threshold"
- binder: "FVFESRKEIL [TBPL1, P62380]"
  reading: "below the threshold"
- binder: "TFSRRPKTRV [CD226, Q15762]"
  reading: "below the threshold"
- binder: "PSDSVGKDVF [EGLN1, Q9GZT9]"
  reading: "below the threshold"
- binder: "MLPANYVEAI [NEB, P20929]"
  reading: "below the threshold"

Then this binder:
Need pKd, item GVHSNDHSVV [LPAR1, Q92633]
below the threshold
